Reported values of %Inh for individual entries
- Test system: MLK3;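 note: KINOMEscan kinase panel screen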
- TEST CONTEXT: concentration: 1 μM, replicates: in singlicate; n = 1
// note: answer is a bare numeric in %

// below: answered molecules
CCNC(=O)/C=C/c1n[nH]c2cc(Sc3ccccc3C(=O)NC)ccc12 = 0
Cc1ccc(NC(=O)c2ccc(Cl)c(Cl)c2)cc1-c1ccc(C(=O)Nc2ccncc2)cc1 = 20
CSc1ccc(NC2=C(c3ccc(Cl)cc3)C(=O)NC2=O)cc1 = 0

[Q] I'd like to know its %Inh. The molecule in question is "COC(=O)Nc1nc2cc(Oc3ccc(NC(=O)Nc4cccc(SC)c4)cc3)ccc2[nH]1.Cl"
[A] 0

[Q] Subsequent entry: Cl.Cl.NCC(NC(=O)c1cc(-c2cccnc2)c(-c2ccnc3[nH]ccc23)s1)c1ccccc1 (centres unmarked)
[A] 48

[Q] Subsequent entry: "Cc1ccc(O)cc1Nc1ccnc2cc(-c3ccc(CN4CCCCC4)o3)ccc12"
[A] 2

[Q] Subsequent entry: "Cc1ccc(C)c(NC(=O)Nc2ccc(C)c(-c3ccc(C(=O)Nc4ccncc4)cc3)c2)c1"
[A] 0

[Q] Subsequent entry: "O=C(Nc1c(F)cccc1F)c1cc(C(=O)c2ccccc2F)c[nH]1"
[A] 0
